Origin of the recorded values: patent US20240360227A1

System tested: Recombinant human his-tagged IGF R extracellular domain protein (human) (UniProt P08069)
Assay comment: SPR, Ab captured via anti-huIgG Fc, dissociation at pH 6
Value type: kon (M⁻¹ s⁻¹)
Write the value in M⁻¹ s⁻¹ as a bare number.

Example binders with recorded kon:
For the binder VRDN-02075 (antibody, V domains shown) VH: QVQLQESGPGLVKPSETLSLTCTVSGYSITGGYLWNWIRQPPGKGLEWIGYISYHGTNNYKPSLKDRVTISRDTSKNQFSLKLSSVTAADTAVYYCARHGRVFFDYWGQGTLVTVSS VL: DIVMTQSPLSLPVTPGEPASISCRSHQSIVHSNGNTYLQWYLQKPGQSPQLLIYKVSNRLYGVPDRFSGSGSGTDFTLKISRVEAEDVGVYYCFQGSHVHWTFGQGTKVEIK , what kon is on record?
294000

Cool, now VRDN-02068 (antibody, V domains shown) VH: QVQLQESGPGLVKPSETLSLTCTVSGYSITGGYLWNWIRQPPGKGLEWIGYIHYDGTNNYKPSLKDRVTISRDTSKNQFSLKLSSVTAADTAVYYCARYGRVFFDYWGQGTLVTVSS VL: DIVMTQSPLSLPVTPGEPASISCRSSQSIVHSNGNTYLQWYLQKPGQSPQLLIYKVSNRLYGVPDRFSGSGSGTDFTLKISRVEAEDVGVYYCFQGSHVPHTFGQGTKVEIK
174000

Cool, now VRDN-02076 (antibody, V domains shown) VH: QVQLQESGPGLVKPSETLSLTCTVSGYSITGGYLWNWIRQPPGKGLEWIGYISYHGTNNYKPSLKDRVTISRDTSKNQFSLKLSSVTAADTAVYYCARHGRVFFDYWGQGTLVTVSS VL: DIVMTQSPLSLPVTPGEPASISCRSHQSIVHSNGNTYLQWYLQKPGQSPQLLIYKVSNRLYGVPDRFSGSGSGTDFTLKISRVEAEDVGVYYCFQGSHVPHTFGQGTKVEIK
381000

Cool, now VRDN-02051 (antibody, V domains shown) VH: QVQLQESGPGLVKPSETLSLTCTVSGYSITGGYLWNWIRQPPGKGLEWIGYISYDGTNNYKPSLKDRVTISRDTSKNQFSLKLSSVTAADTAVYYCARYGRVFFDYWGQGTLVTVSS VL: DIVMTQSPLSLPVTPGEPASISCRSSQSIVHSNGNTYLQWYLQKPGQSPQLLIYKVSNRLYGVPDRFSGSGSGTDFTLKISRVEAEDVGVYYCHQGSHVPWTFGQGTKVEIK
66600

Cool, now VRDN-02031 (antibody, V domains shown) VH: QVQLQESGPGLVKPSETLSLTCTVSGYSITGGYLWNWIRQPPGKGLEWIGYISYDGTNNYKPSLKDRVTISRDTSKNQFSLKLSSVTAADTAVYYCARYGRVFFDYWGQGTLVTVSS VL: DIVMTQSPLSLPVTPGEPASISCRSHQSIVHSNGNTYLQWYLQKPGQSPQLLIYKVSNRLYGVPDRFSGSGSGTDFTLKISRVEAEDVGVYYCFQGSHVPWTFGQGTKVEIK
94400

Cool, now VRDN-02045 (antibody, V domains shown) VH: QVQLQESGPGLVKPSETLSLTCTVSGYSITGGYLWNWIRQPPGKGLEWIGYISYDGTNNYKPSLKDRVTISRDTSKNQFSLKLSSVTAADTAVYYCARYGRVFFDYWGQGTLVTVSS VL: DIVMTQSPLSLPVTPGEPASISCRSSQSIVHSNGNTYLQWYLQKPGQSPQLLIYKHSNRLYGVPDRFSGSGSGTDFTLKISRVEAEDVGVYYCFQGSHVPWTFGQGTKVEIK
51900

Cool, now VRDN-02042 (antibody, V domains shown) VH: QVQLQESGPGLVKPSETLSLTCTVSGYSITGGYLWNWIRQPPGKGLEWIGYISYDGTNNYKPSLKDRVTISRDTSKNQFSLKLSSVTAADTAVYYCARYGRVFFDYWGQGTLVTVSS VL: DIVMTQSPLSLPVTPGEPASISCRSSQSIVHSNGNTYHQWYLQKPGQSPQLLIYKVSNRLYGVPDRFSGSGSGTDFTLKISRVEAEDVGVYYCFQGSHVPWTFGQGTKVEIK
94100

Cool, now VRDN-02046 (antibody, V domains shown) VH: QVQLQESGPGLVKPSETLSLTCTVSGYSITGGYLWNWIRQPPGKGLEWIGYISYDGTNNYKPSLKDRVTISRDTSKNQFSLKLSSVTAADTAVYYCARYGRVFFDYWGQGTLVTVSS VL: DIVMTQSPLSLPVTPGEPASISCRSSQSIVHSNGNTYLQWYLQKPGQSPQLLIYKVHNRLYGVPDRFSGSGSGTDFTLKISRVEAEDVGVYYCFQGSHVPWTFGQGTKVEIK
79900

Continuing:
For the binder VRDN-02047 (antibody, V domains shown) VH: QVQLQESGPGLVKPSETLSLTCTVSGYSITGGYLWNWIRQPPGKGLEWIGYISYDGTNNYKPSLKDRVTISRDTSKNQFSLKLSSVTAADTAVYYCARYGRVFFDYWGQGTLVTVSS VL: DIVMTQSPLSLPVTPGEPASISCRSSQSIVHSNGNTYLQWYLQKPGQSPQLLIYKVSHRLYGVPDRFSGSGSGTDFTLKISRVEAEDVGVYYCFQGSHVPWTFGQGTKVEIK , what kon is on record?
66600

Cool, now VRDN-02072 (antibody, V domains shown) VH: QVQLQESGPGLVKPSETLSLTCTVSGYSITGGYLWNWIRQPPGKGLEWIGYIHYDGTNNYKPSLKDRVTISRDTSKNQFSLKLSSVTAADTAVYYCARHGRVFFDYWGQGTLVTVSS VL: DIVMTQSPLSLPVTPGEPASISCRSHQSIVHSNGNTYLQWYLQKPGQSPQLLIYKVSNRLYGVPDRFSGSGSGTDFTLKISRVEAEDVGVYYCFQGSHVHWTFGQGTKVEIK
197000
